I'd appreciate it if you could supply Kd values for the items below.
- TARGET OR TEST SYSTEM: T1, PUF4 RNA-binding domain (Saccharomyces cerevisiae, UniProt P25339 537-888)
- T1 sequence: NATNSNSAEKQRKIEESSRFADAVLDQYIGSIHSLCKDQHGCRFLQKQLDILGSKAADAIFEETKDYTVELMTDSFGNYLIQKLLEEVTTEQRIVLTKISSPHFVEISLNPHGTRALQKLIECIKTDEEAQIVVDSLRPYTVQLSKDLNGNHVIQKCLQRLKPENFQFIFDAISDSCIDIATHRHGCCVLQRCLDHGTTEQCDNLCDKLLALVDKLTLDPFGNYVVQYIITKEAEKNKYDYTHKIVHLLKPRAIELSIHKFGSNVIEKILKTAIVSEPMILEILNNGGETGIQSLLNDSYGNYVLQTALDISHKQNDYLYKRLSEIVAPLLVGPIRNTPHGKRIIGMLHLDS
- ASSAY TEXT: Mg; RNA-MaP; 20 mM Na-HEPES pH 7.4, 30 mM KOAc, 0.75 mM MgCl2, 0.1% Tween-20, 5% glycerol, 0.1 mg/mL BSA, 2 mM DTT; 25 C; 0.0125-409.6 nM protein
- TEST PARAMETERS: tags: N-His6-TEV cleaved; C-SNAP kept, Cy3B-labelled; label: tethered on chip by stalled RNA polymerase
Value expressed in nM; do not type the unit.

Given the binder UCUCUUUGUAUAUGUUCUCUU (ssRNA) [Ic_S1_P4E.1_K4.1_C4.1_H4.1_A4.1_F4.1_[T8G]_[A9T]_T4.1] , what is its reported Kd?
15.6

Same for Ic_S2_P4E.1_K4.1_C4.1_H4.1_A4.1_[A6C]_F4.1_[T8C]_[A9T]_T4.1 (ssRNA) RNA: UUUGAUUAAUAUGAUAUCGUUCUUUCUUGUAUCUCUUUCUUUCUCGAUAUCAUAUUAAUCUUU
17.7

Param item: UCUCUUUGUACACUAUUAGUUCUCUU (ssRNA) [Id_iii_S1_P4E.7_K4.3_C4.3_[C-2G]_H4.3_A4.1_F4.1_T4.2]
1.04

Another binder to look at: Ic_S2_P5E.1_K5.1_C5.1_H5.1_A5.1_F5.1_[T8A]_[T9C]_[A10T]_T5.1 (ssRNA) RNA: UUUGAUUAAUAUGAUAUCGUUCUUUCUUGUAUUAACUUUCUUUCUCGAUAUCAUAUUAAUCUUU
558

Also UCUCUUUAUGUAUAUAGUUCUCUU (ssRNA) [Id_ii_S1_P3E.2_K3.1_C3.2_[C-2T]_[T-1A]_H3.1_A3.1_F3.1_T3.2_[T9G]_[A10T]] ?
6.42

Also Ib_S2_P4E.1_K4.1_C4.1_H4.1_A4.1_[A6C]_F4.1_[T8C]_T4.1 (ssRNA) RNA: UUUGAUUAAUAUGAUAUCGUUCUUUCUUGUAUCUCAUUCUUUCUCGAUAUCAUAUUAAUCUUU ?
30.6

Do the same for Ic_S4_P5E.1_K5.1_C5.1_H5.1_A5.1_[T5C]_[T6A]_[A7T]_F5.1_[T8A]_[T9A]_[A10C]_T5.1 (ssRNA) RNA: UUUGACAACUGAUCGUUCUUUCUUGUACAUAACUUCUUUCUCGAUCAGUUGUCUUU please
7.13

// query: Id_ii_S2_P3E.2_K3.1_C3.2_[C-2A]_[T-1C]_H3.1_A3.1_F3.1_T3.2_[T9C]_[A10G] (ssRNA) RNA: UUUGAUUAAUAUGAUAUCGUUCUUUCUACUGUAUAUACGUUCUUUCUCGAUAUCAUAUUAAUCUUU
49.4

Also UCUCUUUUACACUAUACCUCUCUU (ssRNA) [Id_ii_S1_P3E.4_K3.3_C3.2_[C-2T]_H3.3_A3.1_F3.1_T3.2_[T9C]_[A10C]] , if possible.
1910

Now the same for UCUCUUUGUAACAAUUCUCUU (ssRNA) [Ic_S1_P4E.1_K4.1_C4.1_H4.1_A4.1_[T5A]_[A6C]_[T7A]_F4.1_[T8A]_[A9T]_T4.1]
102

And for UCUCUUUGUAUUAUUUCUCAUCUCUU (ssRNA) [Ie_S1_P5E.1_K5.1_C5.1_H5.1_A5.1_F5.1_[+9TCTC]_T5.1] ?
16.3
